Attribute: pIC50
- Target Or System: UniProtKB P41597
- Sequence (P41597 whole entry): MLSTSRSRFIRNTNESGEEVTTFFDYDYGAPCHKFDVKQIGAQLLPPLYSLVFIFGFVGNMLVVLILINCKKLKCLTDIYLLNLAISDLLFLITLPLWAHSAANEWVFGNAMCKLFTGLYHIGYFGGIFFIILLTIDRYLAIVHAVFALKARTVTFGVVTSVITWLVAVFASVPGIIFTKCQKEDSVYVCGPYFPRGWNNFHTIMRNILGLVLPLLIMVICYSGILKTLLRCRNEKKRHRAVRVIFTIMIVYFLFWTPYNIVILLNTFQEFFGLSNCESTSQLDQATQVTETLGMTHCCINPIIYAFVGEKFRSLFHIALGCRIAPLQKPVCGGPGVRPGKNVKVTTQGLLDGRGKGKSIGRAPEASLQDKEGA
- Test Details: Antagonist activity against human CCR2B expressed in Chem-1 cells assessed as inhibition of human CCL2-induced intracellular calcium flux incubated for 10 mins by Fluo-4 AM dye based intracellular calcium flux assay
pIC50: −log10 of the molar value.
Property Measured: pIC50

[
  {
    "Compound": "COc1ccc2c(c1)CCOC21CCN(CCC(C(=O)NCc2cc(C(F)(F)F)cc(C(F)(F)F)c2)c2ccc(F)cc2)CC1 (centres undefined)",
    "Readout Number": 6.79
  },
  {
    "Compound": "COc1ccc2c(c1)CCOC21CCN(CCC(C(=O)NCc2cc(F)cc(C(F)(F)F)c2)c2ccc(F)cc2)CC1 (centres undefined)",
    "Readout Number": 6.45
  },
  {
    "Compound": "COc1ccc2c(c1)CCOC21CCN(CCCC(=O)NCc2cc(F)cc(C(F)(F)F)c2)CC1",
    "Readout Number": 6.50
  },
  {
    "Compound": "COc1ccc2c(c1)CCOC21CCN(CCCC(=O)NCc2cc(C(F)(F)F)cc(C(F)(F)F)c2)CC1",
    "Readout Number": 5.91
  },
  {
    "Compound": "O=C(NCc1cc(C(F)(F)F)cc(C(F)(F)F)c1)C(CCN1CCC2(CC1)OCCc1ccccc12)C1CC1 (centres undefined)",
    "Readout Number": 7.77
  },
  {
    "Compound": "O=C(CCCN1CCC2(CC1)OCCc1ccccc12)NCc1cc(C(F)(F)F)cc(C(F)(F)F)c1",
    "Readout Number": 6.16
  },
  {
    "Compound": "O=C(NCc1cc(F)cc(C(F)(F)F)c1)C(CCN1CCC2(CC1)OCCc1ccccc12)c1ccc(F)cc1 (centres undefined)",
    "Readout Number": 6.76
  },
  {
    "Compound": "O=C(CCCN1CCC2(CC1)OCCc1ccccc12)NCc1cc(F)cc(C(F)(F)F)c1",
    "Readout Number": 6.74
  },
  {
    "Compound": "CC1Cc2ccccc2C2(CCN(CCC(C(=O)NCc3cc(F)cc(C(F)(F)F)c3)c3ccc(F)cc3)CC2)O1 (centres undefined)",
    "Readout Number": 5.80
  },
  {
    "Compound": "CC1Cc2ccccc2C2(CCN(CCC(C(=O)NCc3cc(C(F)(F)F)cc(C(F)(F)F)c3)c3ccc(F)cc3)CC2)O1 (centres undefined)",
    "Readout Number": 6.34
  },
  {
    "Compound": "CC1Cc2ccccc2C2(CCN(CCCC(=O)NCc3cc(F)cc(C(F)(F)F)c3)CC2)O1 (centres undefined)",
    "Readout Number": 4.92
  },
  {
    "Compound": "O=C(NCc1cc(C(F)(F)F)cc(C(F)(F)F)c1)C(CCN1CCC2(CC1)OCCc1ccccc12)c1ccc(F)cc1 (centres undefined)",
    "Readout Number": 7.05
  },
  {
    "Compound": "CC1Cc2ccccc2C2(CCN(CCCC(=O)NCc3cc(C(F)(F)F)cc(C(F)(F)F)c3)CC2)O1 (centres undefined)",
    "Readout Number": 5.12
  },
  {
    "Compound": "O=C(NCc1cc(F)cc(C(F)(F)F)c1)C(CCN1CCC2(CC1)OCCc1cc(O)ccc12)c1ccc(F)cc1 (centres undefined)",
    "Readout Number": 5.21
  }
]

The reported measurements were obtained from ChEMBL document CHEMBL3588778.
